- Tested on: Hs578T complex spheroid growth, percent test/control
- assay-procedure: Anticancer human tumor Hs578T cell line growth inhibition [AhR];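 note: luminescent viability signal as a proxy for spheroid growth; spheroids exposed to agents for one week after three days of growth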
- protocol-conditions: second compound 3.16 µM; first compound 0.01 µM; hits give low values
observation-type: viability, T/C

| compound | observation-type | result |
| --- | --- | --- |
| Nc1ncn(C2CC(O)C(CO)O2)c(=O)n1 (stereo unspecified) + CC(CO)NC(=O)c1cc(-c2ccc(Cl)cc2)nn(-c2cnn(C)c2)c1=O | viability, T/C | 109% |
| CC[C@@]1(O)C(=O)OCc2c1cc1n(c2=O)Cc2cc3c(CN(C)C)c(O)ccc3nc2-1 + CC(CO)NC(=O)c1cc(-c2ccc(Cl)cc2)nn(-c2cnn(C)c2)c1=O | viability, T/C | 93.8% |
| CC1COCCN1c1cc(-c2ccnn2C)c2ccnc(-c3ccn[nH]3)c2n1 (stereo unspecified) + Cc1ccccc1N=Nc1ccc(NC(=O)c2ccnn2C)c(C)c1 | viability, T/C | 97.5% |
| Cn1ncnc1C1c2n[nH]c(=O)c3cc(F)cc(c23)NC1c1ccc(F)cc1 (stereo unspecified) + Cc1ccccc1N=Nc1ccc(NC(=O)c2ccnn2C)c(C)c1 | viability, T/C | 93.9% |
| Nc1ncn(C2CC(O)C(CO)O2)c(=O)n1 (stereo unspecified) + Cc1cncc(-c2nc(NCCc3c[nH]c4ccccc34)c3ncn(C(C)C)c3n2)c1 | viability, T/C | 76.2% |
| Cn1ncnc1C1c2n[nH]c(=O)c3cc(F)cc(c23)NC1c1ccc(F)cc1 (stereo unspecified) + Cc1cncc(-c2nc(NCCc3c[nH]c4ccccc34)c3ncn(C(C)C)c3n2)c1 | viability, T/C | 69% |
